Record form. Attribute: Kd. Fill in for each entry.
SYSTEM TESTED: T1, recombinant human IL4Rα-his protein (in house made) (human, UniProt P24394 26-232, limits assumed)
T1 construct: also called Human IL4Ra-his
ASSAY PROTOCOL: SPR (Biacore), antibody captured, IL4Rα-his flowed

Request: State, in one line, measured Kd of huC2C1A1A1-V1 (antibody, human IgG4 S228P, kappa, V domains shown, Humanized, human IgG4/kappa) VH: EVQLVESGGGLVQPGGSLRLSCAASGFTFSTYGMSWVRQAPGKGLVWVSTINSNGGSTSYPDSVKGRFTISRDNAKNTLYLQMNSLRAEDTAVYYCARFFRFRNAMDYWGQGTLVTVSS VL: DIQMTQSPSSLSASVGDRVTITCRTSENIYSYLAWYQQKPGKAPKLLIYNAKTLAEGVPSRFSGSGSGTDFTLTISSLQPEDFATYYCQHYYGPPTWTFGQGTKVEIKR
Response: < 0.0773 nM

Request: State, in one line, measured Kd of huC2C1A1A1-V9 (antibody, human IgG4 S228P, kappa, V domains shown, Humanized, human IgG4/kappa) VH: EVQLVESGGGLVQPGGSLRLSCAASGFTFSTYGMSWVRQAPGKGLVLVATINSNGGSTSYPDSVKGRFTISRDNAKNTLYLQMNSLRAEDTAVYYCARFFRFRNAMDYWGQGTLVTVSS VL: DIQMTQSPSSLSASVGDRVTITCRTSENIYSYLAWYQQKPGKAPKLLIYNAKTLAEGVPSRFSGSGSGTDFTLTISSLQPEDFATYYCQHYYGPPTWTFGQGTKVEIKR
Response: < 0.0507 nM

FYI, the data here is from patent US20230105029A1.
